Just for reference, ChEMBL document CHEMBL3272163 is where these values come from.

Experiment: Octanol-water partition coefficient, P of the compound
# maps each entry to its P
Could you respond with only the numeric value?

Please review the following examples before continuing.
Fill in reported P for this entry: CC(C(=O)O)c1cccc2nc(-c3ccccc3)oc12 (stereo not given)
3.66

Fill in reported P for this entry: Cc1ccc(-c2nc3cccc(C(C)C(=O)O)c3o2)cc1 (stereo not given)
8.94

Fill in reported P for this entry: CC(C(=O)O)c1cccc2oc(-c3ccccc3)nc12 (stereo not given)
6.93

Continuing:
Fill in reported P for this entry: O=C(O)Cc1cccc2oc(-c3ccccc3)nc12
1.03

Fill in reported P for this entry: O=C(O)Cc1cccc2oc(-c3ccc(Cl)cc3)nc12
9.28

###

Experiment: Toxicity in po dosed mouse
Format: organism-based
Details: in vivo
measuredMetric: LD50 (mg/kg)
Report only the number, with the unit mg/kg understood.

Fill in reported LD50 for this entry: O=C(O)Cc1cccc2oc(-c3ccccc3)nc12
400

Fill in reported LD50 for this entry: CC(C(=O)O)c1cccc2nc(-c3ccccc3)oc12 (stereo unspecified)
1200

Fill in reported LD50 for this entry: O=C(O)Cc1cccc2oc(-c3ccc(Cl)cc3)nc12
600

Fill in reported LD50 for this entry: CC(C(=O)O)c1cccc2nc(-c3ccc(Cl)cc3)oc12 (stereo unspecified)
1200

###

Experiment: Dissociation constant, pKa of the compound in 75% EtOH
Format: physicochemical
measuredMetric: pKa
Could you respond with only the numeric value?

Fill in reported pKa for this entry: O=C(O)Cc1cccc2oc(-c3ccccc3)nc12
6.3

Fill in reported pKa for this entry: CC(C(=O)O)c1cccc2nc(-c3ccccc3)oc12 (stereo not given)
6.2

Fill in reported pKa for this entry: CC(C(=O)O)c1cccc2nc(-c3ccc(Cl)cc3)oc12 (stereo not given)
6.25

Fill in reported pKa for this entry: Cc1ccc(-c2nc3cccc(C(C)C(=O)O)c3o2)cc1 (stereo not given)
6.2

Fill in reported pKa for this entry: O=C(O)Cc1cccc2oc(-c3ccc(Cl)cc3)nc12
6.1
